Data credit: paper PMC6018403

TEST DESCRIPTION: Multi-component pharmacokinetic study of GQD, GQD-GC and single herb extracts in rats (plasma, LC/MS/MS)
Assay type: in vivo, Sprague-Dawley rats
CONDITION PARAMETERS: male, Sprague-Dawley, rat; GQD group: rats, oral GQD extract 18.9 g/kg, plasma; read-out: Cmax
PARAMETER: Cmax (ng/mL)

[[record]]
compound = "COc1ccc(-c2coc3c(C4OC(COC5OCC(O)(CO)C5O)C(O)C(O)C4O)c(O)ccc3c2=O)cc1 (centres unmarked)"
numeric_value = 16

[[record]]
compound = "COc1ccc2cc3[n+](cc2c1OC)CCc1cc2c(cc1-3)OCO2"
numeric_value = 28.2

[[record]]
compound = "O=c1cc(-c2ccccc2)oc2cc(O)c(O)c(O)c12"
numeric_value = 11.1

[[record]]
compound = "O=C(/C=C/c1ccc(O)cc1)c1ccc(O)cc1O"
numeric_value = 2.81

[[record]]
compound = "COc1ccc(-c2coc3cc(O[C@@H]4O[C@H](CO)[C@@H](O)[C@H](O)[C@H]4O)ccc3c2=O)cc1"
numeric_value = 34.8

[[record]]
compound = "COc1c(CC=C(C)C)c(O)cc2oc(=O)c(-c3ccc(O)cc3O)cc12"
numeric_value = 7.47

[[record]]
compound = "COc1c(O)cc(OC2OC(CO)C(O)C(O)C2O)c2c(=O)cc(-c3ccccc3)oc12 (centres unmarked) [Compound 13, wogonin 5-O-glucoside]"
numeric_value = 1.83

[[record]]
compound = "O=C(O)[C@H]1O[C@@H](Oc2cc3oc(-c4ccccc4)cc(=O)c3c(O)c2O)[C@H](O)[C@@H](O)[C@@H]1O"
numeric_value = 1180

[[record]]
compound = "COc1cc2c(cc1OC)-c1cc3ccc4c(c3c[n+]1CC2)OCO4 [Compound 22, epiberberine]"
numeric_value = 7.21

[[record]]
compound = "O=c1c(-c2ccc(O)cc2)coc2c([C@@H]3O[C@H](CO)[C@@H](O)[C@H](O)[C@H]3O)c(O)ccc12"
numeric_value = 577


[I] O=c1c(-c2ccc(O)cc2)coc2c(C3OC(COC4OCC(O)(CO)C4O)C(O)C(O)C3O)c(O)cc(O)c12 (centres unmarked)
[II] O=c1c(-c2ccc(O)cc2)coc2cc(O[C@@H]3O[C@H](CO)[C@@H](O)[C@H](O)[C@H]3O)cc(O)c12
[III] O=C(O)[C@H]1O[C@@H](Oc2cc(O)c3c(=O)cc(-c4ccccc4)oc3c2O)[C@H](O)[C@@H](O)[C@@H]1O [Compound 14, norwogonin 7-O-glucuronide]
[IV] COc1c(O)c(O[C@@H]2O[C@H](C(=O)O)[C@@H](O)[C@H](O)[C@H]2O)cc2oc(-c3ccccc3)cc(=O)c12 [Compound 38, lateriflorein 7-O-glucuronide]
Reorder the items by Cmax, least to greatest. Answer by writing out the labels in the requested order.
II, I, IV, III

[A] COc1c(O)cc(O)c2c(=O)cc(-c3ccccc3)oc12
[B] COc1ccc(-c2coc3cc(O)ccc3c2=O)cc1
[C] CC1(C)[C@@H](O[C@H]2O[C@H](C(=O)O)[C@@H](O)[C@H](O)[C@H]2O[C@@H]2O[C@H](C(=O)O)[C@@H](O)[C@H](O)[C@H]2O)CC[C@]2(C)[C@H]3C(=O)C=C4[C@@H]5C[C@@](C)(C(=O)O)CC[C@]5(C)CC[C@@]4(C)[C@]3(C)CC[C@@H]12
[D] COc1ccc2c(c1O)-c1c(O)c(OC)cc3c1[C@H](C2)[N+](C)(C)CC3
Arrange these compounds by their Cmax, starting with the largest number. Answer by listing the labels in the order asked for.
C, D, A, B
(C: 55.6 ng/mL, D: 19.7 ng/mL, A: 12.9 ng/mL, B: 8.62 ng/mL)
